biological target: CatSper (cation channel of sperm) (Homo sapiens, UniProt Q7RTX7+Q86XQ3+Q8NEC5+Q96P56); construct: gene CATSPER1; native channel complex in capacitated donor spermatozoa; with Cation channel sperm-associated auxiliary subunit beta; Cation channel sperm-associated auxiliary subunit gamma; Cation channel sperm-associated auxiliary subunit delta; Cation channel sperm-associated auxiliary subunit epsilon; Cation channel sperm-associated auxiliary subunit zeta; assay: fluo4 Ca2+ population fluorimetry in human sperm; format: cell-based; conditions: activation; capacitated intact sperm, sEBSS with BSA; whole-cell [Ca2+]i read-out attributed to CatSper; direct binding to CatSper not tested
reported.metric: EC50 (nM)
Answer in nM, number only, no unit symbol.

Q: I am curious: what EC50 value has been reported for CC(=O)[C@H]1CC[C@H]2[C@@H]3CCC4=CC(=O)CC[C@]4(C)[C@H]3CC[C@]12C [progesterone] ?
Result: 32

Measured values drawn from paper PMC10266451 for this set.
